MEASUREMENT TARGET: UniProtKB P22309
Sequence (P22309 26-533): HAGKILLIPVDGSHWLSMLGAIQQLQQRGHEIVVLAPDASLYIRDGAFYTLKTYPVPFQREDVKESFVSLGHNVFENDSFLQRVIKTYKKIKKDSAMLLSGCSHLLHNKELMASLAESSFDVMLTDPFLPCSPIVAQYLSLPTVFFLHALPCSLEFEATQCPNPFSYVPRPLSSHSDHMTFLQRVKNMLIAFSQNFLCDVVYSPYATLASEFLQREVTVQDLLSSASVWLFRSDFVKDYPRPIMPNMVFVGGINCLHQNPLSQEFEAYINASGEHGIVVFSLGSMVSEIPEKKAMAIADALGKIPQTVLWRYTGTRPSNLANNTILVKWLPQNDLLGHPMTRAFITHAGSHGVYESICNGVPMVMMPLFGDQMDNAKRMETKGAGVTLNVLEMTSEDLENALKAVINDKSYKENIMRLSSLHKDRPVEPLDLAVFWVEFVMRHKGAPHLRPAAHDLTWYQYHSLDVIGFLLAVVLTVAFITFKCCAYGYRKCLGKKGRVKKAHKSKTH
PROTOCOL: in vitro
APPLIED CONDITIONS: pH 7.5, Inhibition of raloxifene glucuronidation, G1, UGT1A1
PARAMETER: activity at 15 min, 2 μM (%)

>>> print(df.to_string())
                                   compound  measurement_target  u  test_value
0  O=c1c(O)c(-c2ccc(O)c(O)c2)oc2cc(O)cc(O)c12 [Quercetin]    UniProtKB P22309  %          89

====

System: UGT enzymes of human liver microsomes
Construct: other: liver 062101
PROTOCOL: Inhibition of 2ME2 glucuronidation (MG1, MG2) in human liver microsomes
Type: biochemical
APPLIED CONDITIONS: liver 062101; 2ME2 50 μM; inhibitor 100 μM
Listing of entries alongside the reported residual metabolism (% of control), 2ME2 MG2.
PARAMETER: residual metabolism (% of control), 2ME2 MG2

COMPOUND	TEST VALUE
C#C[C@]1(O)CC[C@H]2[C@@H]3CCc4cc(O)ccc4[C@H]3CC[C@@]21C [17-α-Ethinylestradiol, 17-α-ethinylestradiol, reference compound]	4 (0) %
CCCCCCCCOC(=O)c1cc(O)c(O)c(O)c1 [Octyl gallate]	65 (3) %
O=C(c1ccc(OCCN2CCCCC2)cc1)c1c(-c2ccc(O)cc2)sc2cc(O)ccc12 [Raloxifene, raloxifene, reference compound]	20 (1) %
O=C(O)Cc1ccccc1Nc1c(Cl)cccc1Cl [Diclofenac, reference compound]	44 (3) %
CC1CCC(C(C)C)C(O)C1 (stereo not drawn) [Menthol]	74 (3) %
O=C(O[C@@H]1Cc2c(O)cc(O)cc2O[C@@H]1c1ccc(O)c(O)c1)c1cc(O)c(O)c(O)c1 [Epicatechin gallate]	58 (1) %
C=CCc1ccc(O)c(OC)c1 [Eugenol]	72 (1) %
O=C(O[C@@H]1Cc2c(O)cc(O)cc2O[C@@H]1c1cc(O)c(O)c(O)c1)c1cc(O)c(O)c(O)c1 [Epigallocatechin gallate]	35 (1) %
O=C(O[C@@H]1Cc2c(O)cc(O)cc2O[C@H]1c1cc(O)c(O)c(O)c1)c1cc(O)c(O)c(O)c1 [Gallocatechin gallate]	36 (1) %
O=C1C[C@@H](c2ccc(O)cc2)Oc2cc(O)cc(O)c21 [Naringenin]	19 (0) %
O=c1c(O)c(-c2ccc(O)c(O)c2)oc2cc(O)cc(O)c12 [Quercetin]	50 (2) %
O=C(O)c1cc(-c2ccc(F)cc2F)ccc1O [Diflunisal, reference compound]	91 (1) %
